Tested on: K86415-001-R-J1-PDC complex spheroids, viability
Assay: Anticancer human tumor K86415-001-R-J1-PDC patient-derived lung adenocarcinoma cell line growth inhibition [RAS]
Conditions: second compound 0.000949 µM; first compound 0.01 µM; stronger effect = lower value
MEASURE_NAME: viability, T/C (%)
Write the number in % without appending the unit.

| MOLECULE | viability, T/C, % |
| --- | --- |
| Nc1ccn(C2OC(CO)C(O)C2(F)F)c(=O)n1 (stereo not drawn) + CCn1c(-c2cccnc2C(C)OC)c2c3cc(ccc31)N1CCOC(CC(NC(=O)C(C(C)C)N(C)C(=O)C3(F)CCN(C(=O)C#CC(C)(C)N(C)C)CC3)C(=O)N3CCCC(N3)C(=O)OCC(C)(C)C2)C1 | 34.3 |
| C=CC(=O)Nc1cc(Nc2nccc(-c3cn(C)c4ccccc34)n2)c(OC)cc1N(C)CCN(C)C + CCn1c(-c2cc(N3CCN(C)CC3)cnc2C(C)OC)c2c3cc(ccc31)-c1csc(n1)CC(NC(=O)C1CC1C)C(=O)N1CCCC(N1)C(=O)OCC(C)(C)C2 | 48.3 |
| CC(C)n1nc(-c2ccc3oc(N)nc3c2)c2c(N)ncnc21 + CCn1c(-c2cc(N3CCN(C)CC3)cnc2C(C)OC)c2c3cc(ccc31)-c1csc(n1)CC(NC(=O)C1CC1C)C(=O)N1CCCC(N1)C(=O)OCC(C)(C)C2 | 43.9 |

query: Find the recorded viability, T/C belonging to CCN1CCN(Cc2ccc(Nc3ncc(F)c(-c4cc(F)c5nc(C)n(C(C)C)c5c4)n3)nc2)CC1 + CCn1c(-c2cc(N3CCN(C)CC3)cnc2C(C)OC)c2c3cc(ccc31)-c1csc(n1)CC(NC(=O)C1CC1C)C(=O)N1CCCC(N1)C(=O)OCC(C)(C)C2 and report it.
result: 40.1

query: Find the recorded viability, T/C belonging to C=CC(=O)N1CCN(c2nc(OCC3CCCN3C)nc3c(F)c(-c4nc(N)cc(C)c4C(F)(F)F)c(Cl)cc23)C(C)C1 (stereo not drawn) + CCn1c(-c2cc(N3CCN(C)CC3)cnc2C(C)OC)c2c3cc(ccc31)-c1csc(n1)CC(NC(=O)C1CC1C)C(=O)N1CCCC(N1)C(=O)OCC(C)(C)C2 and report it.
result: 11.3

query: Find the recorded viability, T/C belonging to C=CC(=O)N1CCN(c2nc(OCC3CCCN3C)nc3c(F)c(-c4nc(N)cc(C)c4C(F)(F)F)c(Cl)cc23)C(C)C1 (stereo not drawn) + CCn1c(-c2cccnc2C(C)OC)c2c3cc(ccc31)N1CCOC(CC(NC(=O)C(C(C)C)N(C)C(=O)C3(F)CCN(C(=O)C#CC(C)(C)N(C)C)CC3)C(=O)N3CCCC(N3)C(=O)OCC(C)(C)C2)C1 and report it.
result: 12.1

query: Find the recorded viability, T/C belonging to CC(C)n1nc(-c2ccc3oc(N)nc3c2)c2c(N)ncnc21 + CCn1c(-c2cccnc2C(C)OC)c2c3cc(ccc31)N1CCOC(CC(NC(=O)C(C(C)C)N(C)C(=O)C3(F)CCN(C(=O)C#CC(C)(C)N(C)C)CC3)C(=O)N3CCCC(N3)C(=O)OCC(C)(C)C2)C1 and report it.
result: 41.4

query: Find the recorded viability, T/C belonging to Nc1ccn(C2OC(CO)C(O)C2(F)F)c(=O)n1 (stereo not drawn) + CCn1c(-c2cc(N3CCN(C)CC3)cnc2C(C)OC)c2c3cc(ccc31)-c1csc(n1)CC(NC(=O)C1CC1C)C(=O)N1CCCC(N1)C(=O)OCC(C)(C)C2 and report it.
result: 45.2

* * *

Test system: K86415-001-R-J1-PDC complex spheroids, viability
Assay: Anticancer human tumor K86415-001-R-J1-PDC cell line growth inhibition [RAS];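 also: spheroids exposed to agents for seven days before readout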
Settings: second compound 0.003 µM; first compound 0.0316 µM; stronger effect = lower value
Listing: viability, T/C of selected molecules
Write the number in % without appending the unit.

| MOLECULE | MEASURE_NAME | NUMERIC_READOUT |
| --- | --- | --- |
| C=CC(=O)Nc1cc(Nc2nccc(-c3cn(C)c4ccccc34)n2)c(OC)cc1N(C)CCN(C)C + CCn1c(-c2cc(N3CCN(C)CC3)cnc2C(C)OC)c2c3cc(ccc31)-c1csc(n1)CC(NC(=O)C1CC1C)C(=O)N1CCCC(N1)C(=O)OCC(C)(C)C2 | viability, T/C | 14.2 |
| C[C@@H](NC(=O)c1ncnc(N)c1Cl)c1ncc(C(=O)Nc2cc(C(F)(F)F)c(Cl)cn2)s1 + CCn1c(-c2cccnc2C(C)OC)c2c3cc(ccc31)N1CCOC(CC(NC(=O)C(C(C)C)N(C)C(=O)C3(F)CCN(C(=O)C#CC(C)(C)N(C)C)CC3)C(=O)N3CCCC(N3)C(=O)OCC(C)(C)C2)C1 | viability, T/C | 18.7 |
| C=CC(=O)Nc1cc(Nc2nccc(-c3cn(C)c4ccccc34)n2)c(OC)cc1N(C)CCN(C)C + CCn1c(-c2cccnc2C(C)OC)c2c3cc(ccc31)N1CCOC(CC(NC(=O)C(C(C)C)N(C)C(=O)C3(F)CCN(C(=O)C#CC(C)(C)N(C)C)CC3)C(=O)N3CCCC(N3)C(=O)OCC(C)(C)C2)C1 | viability, T/C | 10.1 |

From here, focus on the item given below.
query: Find the recorded viability, T/C belonging to CCN1CCN(Cc2ccc(Nc3ncc(F)c(-c4cc(F)c5nc(C)n(C(C)C)c5c4)n3)nc2)CC1 + CCn1c(-c2cc(N3CCN(C)CC3)cnc2C(C)OC)c2c3cc(ccc31)-c1csc(n1)CC(NC(=O)C1CC1C)C(=O)N1CCCC(N1)C(=O)OCC(C)(C)C2 and report it.
result: 17.5

* * *

Tested on: K86415-001-R-J1-PDC complex spheroids, viability
Experiment: Anticancer human tumor K86415-001-R-J1-PDC cell line growth inhibition [RAS];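 also: spheroids exposed to agents for seven days before readout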
Details: curve of first compound; second compound 0.1 µM
pIC50: −log10 of the molar value.
MEASURE_NAME: pIC50

| COMPOUND | RESULT |
| --- | --- |
| Cc1nc(N2CCC3(CC2)COC(C)C3N)c(CO)nc1Sc1ccnc(N)c1Cl (stereo not given) + C=CC(=O)N1CCN(c2nc(OCC3CCCN3C)nc3c(F)c(-c4nc(N)cc(C)c4C(F)(F)F)c(Cl)cc23)C(C)C1 | > 7.50 |
| C=CC(=O)Nc1cc(Nc2nccc(-c3cn(C)c4ccccc34)n2)c(OC)cc1N(C)CCN(C)C + C=CC(=O)N1CCN(c2nc(OCC3CCCN3C)nc3c(F)c(-c4nc(N)cc(C)c4C(F)(F)F)c(Cl)cc23)C(C)C1 | > 8.50 |
| CC(C)n1nc(-c2ccc3oc(N)nc3c2)c2c(N)ncnc21 + C=CC(=O)N1CCN(c2nc(OCC3CCCN3C)nc3c(F)c(-c4nc(N)cc(C)c4C(F)(F)F)c(Cl)cc23)C(C)C1 | > 9.50 |
| CC(C)NCC(C(=O)N1CCN(c2ncnc3c2C(C)CC3O)CC1)c1ccc(Cl)cc1 (stereo not given) + C=CC(=O)N1CCN(c2nc(OCC3CCCN3C)nc3c(F)c(-c4nc(N)cc(C)c4C(F)(F)F)c(Cl)cc23)C(C)C1 | > 7.50 |

query: Find the recorded pIC50 belonging to CCc1c2c(nc3ccc(O)cc13)-c1cc3c(c(=O)n1C2)COC(=O)[C@]3(O)CC + C#Cc1c(F)ccc2cc(O)cc(-c3ncc4c(N5CC6CCC(C5)N6)nc(OCC56CCCN5CC(F)C6)nc4c3F)c12 and report it.
result: 8.58

* * *

Tested on: K86415-001-R-J1-PDC complex spheroids, viability
Assay: Anticancer human tumor K86415-001-R-J1-PDC cell line growth inhibition [RAS];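 also: spheroids exposed to agents for seven days before readout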
Conditions: second compound 0.003 µM; first compound 0.00316 µM; stronger effect = lower value
MEASURE_NAME: viability, T/C (%)
Write the number in % without appending the unit.

query: Find the recorded viability, T/C belonging to CCN1CCN(Cc2ccc(Nc3ncc(F)c(-c4cc(F)c5nc(C)n(C(C)C)c5c4)n3)nc2)CC1 + CCn1c(-c2cc(N3CCN(C)CC3)cnc2C(C)OC)c2c3cc(ccc31)-c1csc(n1)CC(NC(=O)C1CC1C)C(=O)N1CCCC(N1)C(=O)OCC(C)(C)C2 and report it.
result: 21.5

query: Find the recorded viability, T/C belonging to CCN1CCN(Cc2ccc(Nc3ncc(F)c(-c4cc(F)c5nc(C)n(C(C)C)c5c4)n3)nc2)CC1 + CCn1c(-c2cccnc2C(C)OC)c2c3cc(ccc31)N1CCOC(CC(NC(=O)C(C(C)C)N(C)C(=O)C3(F)CCN(C(=O)C#CC(C)(C)N(C)C)CC3)C(=O)N3CCCC(N3)C(=O)OCC(C)(C)C2)C1 and report it.
result: 12.1

query: Find the recorded viability, T/C belonging to O=C(c1ccc(F)c(F)c1Nc1ccc(I)cc1F)N1CC(O)([C@@H]2CCCCN2)C1 + CCn1c(-c2cccnc2C(C)OC)c2c3cc(ccc31)N1CCOC(CC(NC(=O)C(C(C)C)N(C)C(=O)C3(F)CCN(C(=O)C#CC(C)(C)N(C)C)CC3)C(=O)N3CCCC(N3)C(=O)OCC(C)(C)C2)C1 and report it.
result: 11.8

query: Find the recorded viability, T/C belonging to Nc1ccn(C2OC(CO)C(O)C2(F)F)c(=O)n1 (centres undefined) + CCn1c(-c2cc(N3CCN(C)CC3)cnc2C(C)OC)c2c3cc(ccc31)-c1csc(n1)CC(NC(=O)C1CC1C)C(=O)N1CCCC(N1)C(=O)OCC(C)(C)C2 and report it.
result: 24.2
